# protocol.description: Cytotoxicity MTT assay
# Format: cell-based, Human
# conditions: human, HEK 293 cells, throughout the concentration range and observation time, read-out: cell viability
property.label: viability

### Prompt Output viability of `CN(C)c1ccc(/C=C/C(=O)c2ccc(OCCNC(=O)CN(CCN(CCN(CC(=O)O)CC(=O)NCCOc3ccc(C(=O)/C=C/c4ccc(N(C)C)cc4)cc3)CC(=O)O)CC(=O)O)cc2)cc1`
### Response ~85%

###

# protocol.description: Hemolysis assay
# Format: cell-based
# conditions: human, red blood cells (washed RBC pellet resuspended in PBS), pH 7.4; RBCs, 0.125–2 mg/mL of ligand
property.label: hemolysis

### Prompt // Input: `CN(C)c1ccc(/C=C/C(=O)c2ccc(OCCNC(=O)CN(CCN(CCN(CC(=O)O)CC(=O)NCCOc3ccc(C(=O)/C=C/c4ccc(N(C)C)cc4)cc3)CC(=O)O)CC(=O)O)cc2)cc1` . Output its hemolysis only.
### Response < 5%
